src = paper PMC3626623

- experimental.system: GmRLK08-1 LRR domain expressed in E. coli (soybean (Glycine max))
- assay.remarks: fluorescence polarisation; FITC-labelled peptides in 20 mM phosphate buffer pH 6.9 in a cuvette, 5 nM aliquots, increase in polarisation; baseline of non-CLE and non-LRR peptides subtracted; Kd from double reciprocal Scatchard plots; 3 repeats with 3 protein preparations; apparent for peptide L
pKd: −log10 of the molar value. No end group written: not given here.
# pKd >= 7 gives true, anything below gives false

[
  {
    "binder": "RAELDFNYMSKRRVPNGPDPIHNRRAGNSGR (not fully specified (N-terminus); also: labeled with FITC) [CLE peptide 36L]",
    "assigned.label": "true"
  },
  {
    "binder": "DLPLAPADRLAGGPDPQHNVRAPPRKP (not fully specified (N-terminus); also: labeled with FITC) [CLE peptide 2L]",
    "assigned.label": "false"
  }
]

Now consider a different binder.
I'd appreciate it if you could say whether RTVPSGPDPLHH (not fully specified (N-terminus); also: labeled with FITC) [CLE peptide 3] has pKd at least equal to 7. true
